Biological target: T1, RSV postfusion F (postF), subtype A (respiratory syncytial virus, subtype A, UniProt P03420 26-513)
T1 construct: also called F ΔFP; Postfusion subtype A
Experiment: BLI, IgG

| BINDER | binding result |
| --- | --- |
| ADI-21034 (antibody, V domains shown) VH: QVQLQQSGAEVKKPGESLTISCKGSGYSFGNYWISWVRQMPGKGLEWMGRIDPSDSYVNYSPSFQGNVTMSVDKSSSTAYLQWSSLKASDTAMYYCARLAGYSTLWGQGTLVTVSS VL: EIVLTQSPGTLSLSPGERATLSCRASQSFGSIYLAWYQQKPGQAPRLLIYGTSSRATGIPDRFSGSGSGTDFTLTIRRLEPEDFAVYYCLYYGSSPGATFGPGTKVDIK | no binding |
| ADI-20999 (antibody, V domains shown, also called Ab 250) VH: QVQLQESGPVLVKPSETLSLTCTVSGGSITSSAYYWGWIRQPPGKGLEWIGSVSYSGTTSYTPSLKSRVTISGDASKEQFSLNLRSVTAADTAVYYCARQTKAFGRRDYGMDVWGQGTTVTVSS VL: QPVLTQPPSVSAAPGQKVTISCSGSNSNIGSNFVSWYQQLPGTAPKLLIYENNKRPSGIPDRFSGSKSGPSATLGITGLQTEDEADYYCGTWDTGLSAHWVFGGGTKLTVL | no binding |
| ADI-21023 (antibody, V domains shown) VH: EVQLVESGGGLVKPGGSLRLSCAASGFRFSSYGMHWVRQAPGRGLEWVSSITAGSSYMDYADSVKGRFSISRDNAKTSLYLQMNSLRAEDTAIYYCARENYDTGRGLNWFDPWGQGTLVTVSS VL: QSVVTQPPSVSGAPGQRVTISCTGSSSNIGAGYDVHWYRQLPGTAPEVLIYGNNNRPSGVPDRFSGSKTGTSASLAITGLLAEDGADYYCQSYDRSQLWVFGGGTQLTVP | no binding |

Data credit: patent US20260258115A1
